- protocolNotes: Substrate specificity of WNanoKAZ mutants, crude enzyme solution (Example 11)
- Format: biochemical
- condition: Imax
propertyLabel: Relative luminescence activity, Furimazine, Imax
Response field accepts a number only; no unit should be typed.

WNanoKAZ: chimeric protein: positions 1-82 of native KAZ and 83-169 of nanoKAZ; SEQ ID NO: 6; I90V, P115E, Q124K, Y138I, N166R (protein, chimeric protein: positions 1-82 of native KAZ and 83-169 of nanoKAZ; I90V, P115E, Q124K, Y138I, N166R) FTLADFVGDWQQTAGYNQDQVLEQGGLSSLFQALGVSVTPIQKVVLSGENGLKADIHVIIPYEGLSGFQMGLIEMIFKVVYPVDDHHFKVILHYGTLVIDGVTPNMIDYFGRPYEGIAVFDGKKITVTGTLWNGNKIIDERLINPDGSLLFRVTINGVTGWRLCERILA ... 26

# input Look up Relative luminescence activity, Furimazine, Imax: WNanoKAZ-K124Q: single amino acid-substituted WNanoKAZ mutant K124Q; SEQ ID NO: 12 (protein) FTLADFVGDWQQTAGYNQDQVLEQGGLSSLFQALGVSVTPIQKVVLSGENGLKADIHVIIPYEGLSGFQMGLIEMIFKVVYPVDDHHFKVILHYGTLVIDGVTPNMIDYFGRPYEGIAVFDGKQITVTGTLWNGNKIIDERLINPDGSLLFRVTINGVTGWRLCERILA
# output 18
